Molecular target: T1, human CD4 on human PBMCs (human, UniProt P01730 26-458)
T1 construct: whole, on cells; the CD4-positive gate was set with the control antibodies OKT4 and RPA-T4; also called hCD4
Assay: FACS, clonal hybridoma supernatant on PBMCs
Measured property: % CD4 Stain (%)
Quick reminder: number only, in %, skip the unit.

The following binders have reported results that may help.
[
  {
    "Binder": "75110_06D16A (antibody, V domains shown, Tested as clonal hybridoma supernatant of an AlivaMab Mouse Kappa antibody (human variable regions, kappa; detected with anti-mouse Fc)) VH: QVQLQQWGAGLLKPSETLSLTCAVYGGSFSGYYWSWIRQPPGKGLEWIGEINHSGSTNYNPSLKSRVTISVVTSKNQFSLKLSSVTAADTAVYYCARVLNWFDPWGQGTLVTVSS VL: DIQMTQSPSSVSASVGDRVTITCRASQDIADWLAWYQQKPGKAPKLLIYAASSFQSGVPSRFSGSGSGTDFTLTISSLQPEDFATYFCQQANSFPYTFGQGTKLEIK",
    "% CD4 Stain, %": 39.2
  },
  {
    "Binder": "75110_05E05A (antibody, V domains shown, Tested as clonal hybridoma supernatant of an AlivaMab Mouse Kappa antibody (human variable regions, kappa; detected with anti-mouse Fc)) VH: QVQLQESGPGLVKPSETLSLTCTVSGGSIGSYYWSWIRQPAGKGLEWIGRIYTSGSTNYNPSLKSRVTMSFDTSKNQFSLKLNSVTAADTAVYYCATDGGVGDSLDYWGQGTLVTVSS VL: DIVMTQTPLSLPVTPGEPASISCRSSQSLLDSDDGNTYLDWYLQKPGQSPQLLIYTLSYRASGVPDRFSGSGSGTDFTLKISRVEAEDVGVYYCMQHIEFPFTFGPGTKVDIK",
    "% CD4 Stain, %": 31.8
  },
  {
    "Binder": "75110_03I08A (antibody, V domains shown, Tested as clonal hybridoma supernatant of an AlivaMab Mouse Kappa antibody (human variable regions, kappa; detected with anti-mouse Fc)) VH: QVQLQESGPGLVKPSETLSLTCTVSGGSISSYYWSWIRQPPGKGLEWIGYIYYSGSTNYNPSLKSRVTISVDTSKNQFSLKLSSVTAADTAVYYCAREGEQWFYGLDVWGQGTTVTVSS VL: EIVLTQSPGTLSLSPGERATLSCRASQSVSSTYLAWYQQKPGQAPRLLIYGSSSRATGIPDRFSGSGSGTDFTLTISRLEPEDFAVYYCQQYGNSFPITFGQGTRLEIK",
    "% CD4 Stain, %": 17.8
  },
  {
    "Binder": "75110_06C16A (antibody, V domains shown, Tested as clonal hybridoma supernatant of an AlivaMab Mouse Kappa antibody (human variable regions, kappa; detected with anti-mouse Fc)) VH: QVQLQESGPGLVTPSETLSLSCTVSGGSISDYYWSWIRQPGGKGLEWIGRIYSSGSTNYNPSLKSRVTMSVDTSKNQFSLKLSSVTAADTAVYFCARDREDYYYYGMDVWGQGTTVTVSS VL: DIQMTQSPSSLSASVGDRVTITCQASHDISNYLNWYQQKPGKAPKLLIYAASNLETGVPSRFSGSGSGTDFSFTISSLQPEDIATYYCQQYDHLPLTFGGGTKVEIK",
    "% CD4 Stain, %": 33.1
  },
  {
    "Binder": "75110_05A11A (antibody, V domains shown, Tested as clonal hybridoma supernatant of an AlivaMab Mouse Kappa antibody (human variable regions, kappa; detected with anti-mouse Fc)) VH: EVQLVESGGGLVKPGGSLTLSCAASGFTFSNTWMSWVRQAPGKGLEWVGRIKSKIDGGTTDYAAPVKGRFTISRDDSKNTLYLQMNSLKTEDTAVYYCTTSGTYSSGWGLFDYWGQGTLVTVSS VL: DIQMTQSPSSLSASVGDRVTITCQASQDISNYLNWYQQKPGKAPKLLIYDTSNLEAGVPSRFSGSGSGTHFTLTISSLQPEDIATYYCQQYDNLPFTFGGGTRVEIK",
    "% CD4 Stain, %": 35.9
  },
  {
    "Binder": "75110_04G16A (antibody, V domains shown, Tested as clonal hybridoma supernatant of an AlivaMab Mouse Kappa antibody (human variable regions, kappa; detected with anti-mouse Fc)) VH: QVQLQESGPGLVKPSQTLSLTCTVSGDSISSGYYYWSWIRQHPGKGLEWIGYISYSGSTYYNPSLKSRLTISVNTSKNQFSLKLSSLTAADTAVYYCARDRPSNFDAFDIWGQGTMVTVSS VL: EIVLTQSPGTLSLSPGERATLSCRASQSVGSTYLAWYQQKPGQAPRLLIYGAFSRATGIPDRFSGSGSGTDFTLTISRLEPEDFAVYYCQQYGSSPLTFGPGTKVDIK",
    "% CD4 Stain, %": 36.3
  }
]

Then there is this binder:
// % CD4 Stain value for 75110_05B13A (antibody, V domains shown, Tested as clonal hybridoma supernatant of an AlivaMab Mouse Kappa antibody (human variable regions, kappa; detected with anti-mouse Fc)) VH: QVLLEQWGAGLLKPSETLSLTCAVYGGSFSGYYWTWIRQPPGKGLEWIGEINHRGSTNYNPSLKSRVTISIDTSKNQFSLKVKSVTAADTAMYYCTRPDSNWFDPWGQGTLVTVSS VL: DIQMTQSPSSVSASVGDRVTITCRASQDISNWLAWYQQKPGKAPKLLIFAASSLQSGVPSRFSGSGSGTDFTLTISSLQPEDFATYYCQQANSFPLTFGGGTKVEIK : 55.8

The origin of these recorded values is patent US20220112288A1.
